Just for reference, patent US6476012B2 is where these values come from.

- Study Target: ER in rat uterine cytosol (ERα) (Rattus norvegicus)
- Construct: The uterus was removed and homogenized in ice-cold TEGDMo buffer; from tissue; host or cells: uterine cytosol of castrated female Sprague Dawley rats
- Sequence (P06211 whole entry): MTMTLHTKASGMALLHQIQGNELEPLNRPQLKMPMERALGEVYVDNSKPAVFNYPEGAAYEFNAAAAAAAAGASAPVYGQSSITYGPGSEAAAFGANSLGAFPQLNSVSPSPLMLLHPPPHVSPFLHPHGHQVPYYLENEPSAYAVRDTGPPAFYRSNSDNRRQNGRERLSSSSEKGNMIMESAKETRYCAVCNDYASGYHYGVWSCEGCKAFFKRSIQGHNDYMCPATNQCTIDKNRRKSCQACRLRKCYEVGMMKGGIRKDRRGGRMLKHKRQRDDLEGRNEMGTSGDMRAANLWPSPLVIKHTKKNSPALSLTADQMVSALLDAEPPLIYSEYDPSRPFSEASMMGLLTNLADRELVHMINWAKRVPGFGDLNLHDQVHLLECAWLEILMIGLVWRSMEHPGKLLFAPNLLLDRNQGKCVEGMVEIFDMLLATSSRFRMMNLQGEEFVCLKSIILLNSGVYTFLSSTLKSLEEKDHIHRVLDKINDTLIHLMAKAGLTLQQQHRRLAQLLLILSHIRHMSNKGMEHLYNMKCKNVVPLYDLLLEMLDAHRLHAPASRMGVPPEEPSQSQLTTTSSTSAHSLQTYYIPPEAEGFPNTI
- Experimental Details: Competitive binding to the ER in rat uterine cytosol (RBA vs [3H]E2)
- Condition Context: uterine cytosol (ERα), relative to E2
Property Name: RBA (%)
Response body: numeric value in %, unit text excluded.

# Compound, Study Target, Unit, RBA
rows = [
    ("C=COC(=O)[C@@H]1C[C@H]2[C@@H]3CCc4cc(O)ccc4[C@H]3CC[C@]2(C)[C@H]1O [E16-1,2vin]", "ER in rat uterine cytosol (ERα) (Rattus norvegicus)", "%", 6),
    ("COC(=O)C[C@@H]1C[C@H]2[C@@H]3CCc4cc(O)ccc4[C@H]3CC[C@]2(C)[C@H]1O [E16-2,1]", "ER in rat uterine cytosol (ERα) (Rattus norvegicus)", "%", 5),
    ("CC(C)(C)COC(=O)[C@@H]1C[C@H]2[C@@H]3CCc4cc(O)ccc4[C@H]3CC[C@]2(C)[C@H]1O [E16-1,5neo]", "ER in rat uterine cytosol (ERα) (Rattus norvegicus)", "%", 7),
]

So what RBA did C[C@]12CC[C@@H]3c4ccc(O)cc4CC[C@H]3[C@@H]1C[C@@H](C(=O)OCC(F)F)[C@@H]2O [E16-1,2F2] get with ER in rat uterine cytosol (ERα) (Rattus norvegicus)?
10
